Test system: CAKI-1 renal
Test: NCI-60 one-dose screen, 48 h (100 = growth as untreated, 0 = no growth, -100 = all killed)
Details: 10 µM unless noted
About 83,000 compounds went through this panel and 20% of them were active in at least one assay; those are over-represented in the sample as a whole.
growth: recorded values
measurementKind: growth (%)

{"compound": "COc1ccc(C(=O)/C=C/c2ccc(OCc3ccccc3)c(OC)c2)cc1OC", "measurementKind": "growth", "scaleUnit": "%", "number": 38.8}
{"compound": "CC(/C=C1\\SC(=S)N(CCCC(=O)NC(CC(C)C)C(=O)O)C1=O)=C\\c1ccccc1 (stereo not drawn)", "measurementKind": "growth", "scaleUnit": "%", "number": 79.5}
{"compound": "COc1ccc(-c2nc(SCC(C)C)nc(NCCc3c[nH]c4ccccc34)c2C#N)cc1", "measurementKind": "growth", "scaleUnit": "%", "number": 54.1}
{"compound": "O=C(/C=C/c1ccc(O)c(O)c1)NC1CCOC1O (stereo not drawn)", "measurementKind": "growth", "scaleUnit": "%", "number": 92.9}
{"compound": "COc1cc2oc(-c3cccc(NC(=O)[C@H](CC(N)=O)NC(=O)OC(C)(C)C)c3)cc(=O)c2c(OC)c1OC", "measurementKind": "growth", "scaleUnit": "%", "number": 84.5}
{"compound": "COc1ccc(/C=C/c2nc3ccccc3c(=O)n2CC(=O)Nc2ccc(Cl)cc2)cc1", "measurementKind": "growth", "scaleUnit": "%", "number": 43.1}
{"compound": "CN(C)c1nc(NCCNS(=O)(=O)c2ccc(C(=O)/C=C/c3ccc(Cl)cc3)cc2)nc(Nc2ccc(F)cc2)n1", "measurementKind": "growth", "scaleUnit": "%", "number": -23.3}
{"compound": "CSc1ccc(C(=O)Nc2ccc3nn(/C(C#N)=C/c4ccccn4)nc3c2)cc1", "measurementKind": "growth", "scaleUnit": "%", "number": -42.9}
{"compound": "COc1ccc2oc(=O)c(C3(C)NC(=O)c4c(/C=C/C(=O)OC(C)(C)C)cccc4N3)cc2c1 (stereo not drawn)", "measurementKind": "growth", "scaleUnit": "%", "number": 39.9}
{"compound": "C#C[C@]1(O)CC[C@H]2[C@@H]3CC=C4c5sc(-c6ccc([N+](=O)[O-])cc6)nc5CC[C@]4(C)[C@H]3CC[C@@]21C", "measurementKind": "growth", "scaleUnit": "%", "number": 23.1}
{"compound": "COc1ccc(-c2nc3ccc(C(=O)NN4C(=O)c5ccc([N+](=O)[O-])cc5C4=O)cc3[nH]2)cc1", "measurementKind": "growth", "scaleUnit": "%", "number": 92.6}
{"compound": "CC1(C)CC[C@]2(C(=O)O)CC[C@]3(C)C(=CCC4[C@@]5(C)C[C@@H](O)[C@@H]6OC(c7ccccc7Br)OC[C@@]6(C)C5CC[C@]43C)C2C1 (stereo partly drawn)", "measurementKind": "growth", "scaleUnit": "%", "number": 14.6}
{"compound": "CC(=O)OCC1OC(OC2C(COC(C)=O)OC(n3cc(COc4ccc5ccc(=O)oc5c4)nn3)C(OC(C)=O)C2OC(C)=O)C(OC(C)=O)C(OC(C)=O)C1OC(C)=O (stereo not drawn)", "measurementKind": "growth", "scaleUnit": "%", "number": 88.1}
{"compound": "CCC(C)(C)c1ccc(OCCCCN2CCN(c3ccncc3)CC2)cc1", "measurementKind": "growth", "scaleUnit": "%", "number": 43.5}
{"compound": "CC12CC[C@@H]3[C@]4(C)COC(c5cn[nH]c5-c5cccc(Br)c5)O[C@@H]4CC[C@@]3(C)[C@@H]1CC(C1=CCOC1=O)O2 (stereo partly drawn)", "measurementKind": "growth", "scaleUnit": "%", "number": 39.9}
{"compound": "COc1ccc(/C=C/c2nc3ccccc3nc2Nc2cccc(C)c2)cc1", "measurementKind": "growth", "scaleUnit": "%", "number": 72.9}
{"compound": "COc1cc(NC(=O)c2cccc(C3CCc4c(cc(OC)c(OC)c4OC)O3)c2)cc(OC)c1OC (stereo not drawn)", "measurementKind": "growth", "scaleUnit": "%", "number": 14.8}
{"compound": "O=C(/C=C/c1ccc(-c2ccccc2)cc1)c1nc2ccccc2n1Cc1ccc(Br)cc1", "measurementKind": "growth", "scaleUnit": "%", "number": 50.4}
{"compound": "COc1ccc(NC(=O)Cn2c(O)c(N=Nc3ccc(S(N)(=O)=O)cc3)c3ccccc32)cc1", "measurementKind": "growth", "scaleUnit": "%", "number": 27.4}
{"compound": "N#Cc1c(-c2ccccc2Cl)cc(-c2ccc3ccccc3c2)[nH]c1=O", "measurementKind": "growth", "scaleUnit": "%", "number": 25.1}
{"compound": "O=C(N1c2ccccc2Sc2ccccc21)n1ccc2cccnc21", "measurementKind": "growth", "scaleUnit": "%", "number": 53.6}
{"compound": "CSc1ccc(NC(=O)c2ccc3nn(/C(C#N)=C/c4ccccn4)nc3c2)cc1", "measurementKind": "growth", "scaleUnit": "%", "number": -90.9}
{"compound": "COc1ccc(C(SCCNCc2cc(N(C)C)ccn2)(c2ccccc2)c2ccccc2)cc1", "measurementKind": "growth", "scaleUnit": "%", "number": 11.3}
{"compound": "N#Cc1c(-c2ccc(Br)cc2)nc2n[nH]c(-c3ccc(Br)cc3)c2c1-c1ccc(C(F)(F)F)cc1", "measurementKind": "growth", "scaleUnit": "%", "number": 2.69}
{"compound": "C=C1CC[C@@H]2[C@]3(C)COC(c4cn[nH]c4-c4ccc(F)cc4)O[C@@H]3CC[C@@]2(C)[C@@H]1C/C=C1/C(=O)OCC1O (stereo partly drawn)", "measurementKind": "growth", "scaleUnit": "%", "number": 1.51}
{"compound": "CC(C)CSc1nc(NCCc2c[nH]c3ccccc23)c(C#N)c(-c2ccccc2)n1", "measurementKind": "growth", "scaleUnit": "%", "number": 50.8}
{"compound": "CCCCSc1nc(NCCc2c[nH]c3ccccc23)c(C#N)c(-c2ccc(OC)cc2)n1", "measurementKind": "growth", "scaleUnit": "%", "number": 53.6}
{"compound": "O=C(CN1C(=O)/C(=C/c2ccccc2Cl)SC1=S)N1CCOCC1", "measurementKind": "growth", "scaleUnit": "%", "number": 90.9}
{"compound": "C=C1CC[C@@H]2[C@]3(C)COC(c4cn[nH]c4-c4cccc(Br)c4)O[C@@H]3CC[C@@]2(C)[C@@H]1C/C=C1/C(=O)OCC1O (stereo partly drawn)", "measurementKind": "growth", "scaleUnit": "%", "number": -39.3}
{"compound": "Cc1ncsc1-c1ccc(CNC(=O)[C@@H]2C[C@@H](O)CN2C(=O)[C@@H](NC(=O)C2(F)CC2)C(C)(C)C)c(OCCOCCOCCOCCOc2nc(Nc3cc(S(C)(=O)=O)ccc3N[C@@H](c3cccc4c3OC(F)(F)O4)c3ncccc3Cl)nc(N3CCNCC3)n2)c1", "measurementKind": "growth", "scaleUnit": "%", "number": 101}
{"compound": "COc1c(F)ccc(C(=O)Nc2ccc3nc(NC(=O)C4CCCN(S(=O)(=O)c5ccc(Cl)cc5)C4)sc3c2)c1F (stereo not drawn)", "measurementKind": "growth", "scaleUnit": "%", "number": 68.9}
{"compound": "CN1CCN(c2ccc(C(=O)/C=C/c3cc(C(F)(F)F)cc(C(F)(F)F)c3)cc2)CC1", "measurementKind": "growth", "scaleUnit": "%", "number": -73.7}
{"compound": "Cn1cc(-c2cc(N)n3nc(-c4c[nH]c5ccccc45)cc3n2)c2cccnc21", "measurementKind": "growth", "scaleUnit": "%", "number": 23.9}
